- System: rodent lifetime carcinogenesis bioassay, tumor incidence TD50
- measurement description: carcinogenic potency in animals, long-term in vivo studies, CPDB compilation (AID 1745844)
- condition: mouse; strain CF-1; females; in feed; site: any site (literature study); lesion: several types; types named in the paper; dosed 123 weeks; study length 123 weeks
quantity kind: TD50

Prompt: Would you kindly share the measured TD50 for "Clc1ccc(C(c2ccc(Cl)cc2)C(Cl)Cl)cc1" ?
Completion: 67.1 mg/kg/day

----------
- System: rodent lifetime carcinogenesis bioassay, tumor incidence TD50
- measurement description: carcinogenic potency in animals, long-term in vivo studies, CPDB compilation (AID 1745844)
- condition: rat; strain IcoIbm:OFA (Sprague-Dawley derived); males; inhaled; site: nasal cavity, olfactory region, Bowman's gland; lesion: adenocarcinoma; dosed 104 weeks; study length 104 weeks
quantity kind: TD50

Prompt: Would you kindly share the measured TD50 for "COc1ccc(C(=O)Nc2c(Cl)cncc2Cl)cc1OC1CCCC1" ?
Completion: 25.6 mg/kg/day

----------
- Tested on: rodent lifetime carcinogenesis bioassay, tumor incidence TD50
- measurement description: carcinogenic potency in animals, long-term in vivo studies, CPDB compilation (AID 1745844)
- condition: rat; strain Fischer 344; males; inhaled; site: thyroid gland; lesion: c-cell adenoma; dosed 104 weeks; study length 104 weeks
quantity kind: TD50 (mg/kg/day)
Your answer should be a plain number; it is taken to be in mg/kg/day.

Prompt: Would you kindly share the measured TD50 for "C=CC(=C)Cl" ?
Completion: 20

----------
- Test system: rodent lifetime carcinogenesis bioassay, tumor incidence TD50
- measurement description: carcinogenic potency in animals, long-term in vivo studies, CPDB compilation (AID 1745844)
- condition: mouse; strain B6C3F1; females; in drinking water; site: forestomach; lesion: squamous-cell papilloma; dosed 80 weeks; study length 80 weeks
Active and inactive are the calls of the source. No rule for the calls is given here.
quantity kind: TD50

Prompt: Would you kindly share the measured TD50 for "O=CCBr" ?
Completion: 2520 mg/kg/day (inactive)

----------
- Tested on: rodent lifetime carcinogenesis bioassay, tumor incidence TD50
- measurement description: carcinogenic potency in animals, long-term in vivo studies, CPDB compilation (AID 1745844)
- condition: mouse; strain B6C3F1; males; oral dosing; site: liver; lesion: hepatoma; dosed 58 weeks; study length 58 weeks
quantity kind: TD50 (mg/kg/day)
Your answer should be a plain number; it is taken to be in mg/kg/day.

Prompt: Would you kindly share the measured TD50 for ClC1(Cl)C2(Cl)C3(Cl)C4(Cl)C(Cl)(Cl)C5(Cl)C3(Cl)C1(Cl)C5(Cl)C24Cl (stereo unspecified) ?
Completion: 1.83

----------
- System: rodent lifetime carcinogenesis bioassay, tumor incidence TD50
- measurement description: carcinogenic potency in animals, long-term in vivo studies, CPDB compilation (AID 1745844)
- condition: rat; strain F344/DuCrj; males; in drinking water; site: liver; lesion: neoplastic nodule; dosed 104 weeks; study length 108 weeks
quantity kind: TD50
# output: numeric value plus its unit

Prompt: Would you kindly share the measured TD50 for "CC(=O)OC/C=C(C)/C=C/C=C(C)/C=C/C1=C(C)CCCC1(C)C" ?
Completion: 2060 mg/kg/day

----------
- Tested on: rodent lifetime carcinogenesis bioassay, tumor incidence TD50
- measurement description: carcinogenic potency in animals, long-term in vivo studies, CPDB compilation (AID 1745844)
- condition: rat; strain Fischer 344; males; in feed; site: urinary bladder; lesion: squamous-cell papilloma; dosed 103 weeks; study length 104 weeks
quantity kind: TD50

Prompt: Would you kindly share the measured TD50 for "Nc1ccc(N)c2c1C(=O)c1c(N)ccc(N)c1C2=O" ?
Completion: 1260 mg/kg/day
